MEASURED TARGET: T1, biotin-Aβ1-20 (biotin (position not given))
T1 peptide: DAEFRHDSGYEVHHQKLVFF
PROTOCOL DETAILS: BIACORE, biotin-Aβ1-20 as antigen; column Fab
MEASURED ATTRIBUTE: pKd
# pKd is unitless: minus log10 of the molar concentration; print number only

binder="20C2-8A Fab fragment (clone SJ-p2-39) (Fab, V domains shown) VH: QVTLKESGPALVKPTQTLTLTCTFSGFSLSTSGMGVGWIRQPPGKALEWLAHIWWDDDKSYNPSLKSRLTISKDTSKNQVVLTMTNMDPVDTATYYCARRQLGLRSIDAMDYWGQGTTVTVSS VL: DVVMTQSPLSLPVTPGEPASISCRSSQSILHSNGNTYLEWYLQKPGQSPQLLIYKVSNRFSGVPDRFSGSGSGTDFTLKISRVEAEDVGVYYCLQTTRVPLTFGQGTKLEIKR" test_result=7.85

Proceed to the following item.
QUERY: Requested field: pKd. Item: 20C2-13A Fab fragment (clone 4p1-20) (Fab, V domains shown) VH: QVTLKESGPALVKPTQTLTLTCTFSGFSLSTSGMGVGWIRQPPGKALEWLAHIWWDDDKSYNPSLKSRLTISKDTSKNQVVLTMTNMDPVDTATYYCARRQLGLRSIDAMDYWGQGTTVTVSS VL: DVVMTQSPLSLPVTPGEPASISCRSSQSILHSNGNTYLEWYLQKPGQSPQLLIYKVSNRFSGVPDRFSGSGSGTDFTLKISRVEAEDVGVYYCLQTSNVPLTFGQGTKLEIKR
RESULT: 7.03
